test system: HCT-116 colon; assay: NCI tumour cell line growth inhibition, 48 h; in the data active means GI50 below about 0.43 µM; inactive means the rest
Allowed answers: YES for active, NO for inactive

[
  {
    "smiles-entry": "C=C1C(=O)O[C@H]2[C@H]1CC/C(COC(=O)/C=C\\C(=O)NCc1ccc(Cn3c(=O)sn(-c4ccc(C#N)cc4)c3=O)cc1)=C\\CC[C@@]1(C)O[C@@H]21",
    "label-value": "YES"
  },
  {
    "smiles-entry": "CC[C@H](C)[C@H](NC(=O)[C@H]1CCCCN1C)C(=O)N(C)[C@H](CCc1nc(C(=O)N[C@@H](Cc2ccccc2)C[C@H](C)C(=O)OC)cs1)C(C)C",
    "label-value": "YES"
  },
  {
    "smiles-entry": "COc1cc(C(=O)O[C@H](C(N)=O)[C@]2(C)CO2)c2ccccc2c1",
    "label-value": "NO"
  },
  {
    "smiles-entry": "COc1ccc(-n2cc(-c3cc(OC)c(OC)c(OC)c3)[nH]c2=S)cc1OC",
    "label-value": "NO"
  },
  {
    "smiles-entry": "COc1ccc(S(=O)(=O)N(Cc2ccc3c(n2)C=CC(C)(C)O3)C2CCC2)cc1OC",
    "label-value": "YES"
  },
  {
    "smiles-entry": "CC(=O)[O][Hg][c]1c(C)c(C)c(C)c(C)c1C",
    "label-value": "NO"
  },
  {
    "smiles-entry": "COc1cc2c3c(n(CCCBr)c(=O)c2cc1OC)-c1ccc(NC(C)=O)cc1C3=O",
    "label-value": "NO"
  }
]

// switching to the query compound
stdin: Please share the test call associated with CCOC(=O)c1c(C)n(Cc2ccc(OC)cc2)c2c1cc(O)c1[nH]c3c(c12)CCCC3 .
stdout: NO

###

tested on: SF-268 CNS; assay: NCI tumour cell line growth inhibition, 48 h
observable: TGI

Here is how some compounds turned out for TGI.
[
  {
    "compound": "NCCc1nc(-c2nc(C(=O)O)cs2)cs1",
    "tested-system": "SF-268 CNS",
    "TGI": "> 100 µM"
  },
  {
    "compound": "CC(C)CC(N)C(=O)O (configuration not stated)",
    "tested-system": "SF-268 CNS",
    "TGI": "> 100 µM"
  },
  {
    "compound": "S=C(/N=c1/sc(Nc2ccccc2)nc2sc3c(c12)CCCC3)Nc1ccccc1",
    "tested-system": "SF-268 CNS",
    "TGI": "> 62.5 µM"
  }
]

Form: compound = CCCN=C(NC(=O)c1ccc(Cl)cc1)SC ; TGI = > 100 µM

Memo: C/C(=N\NC(=S)N1CC2CCC(CC2)C1)c1ccncn1 , reported TGI: 3.62 µM

###

system: OVCAR-5 ovarian; experiment: NCI tumour cell line growth inhibition, 48 h
Reported GI50 values for the following molecules.

# annotated cases, reported GI50 shown
[
  {
    "molecule": "COc1ccc(C2CC(=O)c3c(OC)cc(OC)cc3O2)cc1 (stereo not drawn)",
    "GI50": "> 100 µM"
  },
  {
    "molecule": "COC(=O)[C@]12CCC(C)(C)C[C@H]1C1=CC[C@@H]3[C@@]4(C)C/C(=C/c5cccnc5)C(=O)C(C)(C)[C@@H]4CC[C@@]3(C)[C@]1(C)CC2",
    "GI50": "14.1 µM"
  }
]

Reading of GI50 for COc1cc2c(/C=C3/C(=O)Nc4cccc(Cl)c43)c(Cl)n(Cc3ccccc3)c2cc1C with OVCAR-5 ovarian: 24.4 µM

Form: item COc1cc2c3c(n(CCCBr)c(=O)c2cc1OC)-c1ccc(NC(C)=O)cc1C3=O ; test system OVCAR-5 ovarian; GI50: 52.6 µM

Reading of GI50 for Cn1cc(-c2csc(-c3cccc(F)c3)n2)c2cccnc21 with OVCAR-5 ovarian: 14.8 µM

Measured GI50 (OVCAR-5 ovarian), entry C[C@]12CC[C@@H]3c4ccc(O)cc4C[C@@H](CCCCCCCCCS(=O)CCCC(F)(F)C(F)(F)F)[C@H]3[C@@H]1CC[C@@H]2O (stereo partly drawn) : > 100 µM

Let me check: O=C(CCCSc1nc(-c2ccc(Cl)cc2)cc(-c2ccc(Cl)cc2)n1)NO , system OVCAR-5 ovarian, measured GI50 is 1.42 µM

Here COc1ccc(C(=O)/C=C/c2cccnc2Nc2cc(OC)c(OC)c(OC)c2)cc1 was tested on OVCAR-5 ovarian, and its GI50 came to 3.36 µM
